- testedOn: H1 (Homo sapiens (Human))
- testDetails: H1 binding assay ([3H]pyrilamine, HEK293 stable cell line membranes)
- conditionNotes: Table E, class symbols
quantityKind: Ki

- compound: "CC(C)(CN1CCN(C2=Nc3ccc(F)cc3Oc3cc(F)ccc32)CC1)C(=O)O [Compound No. 11]"
  quantityKind: "Ki"
  reported: "> 50 nM"
- compound: "COc1ccc2c(c1)Oc1cc(F)ccc1N=C2N1CCN(CC(C)(C)C(=O)O)CC1 [Compound No. 21]"
  quantityKind: "Ki"
  reported: "> 50 nM"
- compound: "CSc1ccc2c(c1)Oc1cc(Cl)ccc1N=C2N1CCN(CC(C)(C)C(=O)O)CC1 [Compound No. 4]"
  quantityKind: "Ki"
  reported: "1 to 25 nM"
- compound: "Cc1ccc2c(c1)Oc1cc(Cl)ccc1N=C2N1CCN(CC2(C(=O)O)CC2)CC1 [Compound No. 13]"
  quantityKind: "Ki"
  reported: "25 to 50 nM"
- compound: "CCc1ccc2c(c1)Oc1cc(C)ccc1N=C2N1CCN(CC2(C(=O)O)CC2)CC1 [Compound No. 14]"
  quantityKind: "Ki"
  reported: "> 50 nM"
- compound: "Cc1ccc2c(c1)Oc1cc(C)ccc1C(N1CCN(CC3(C(=O)O)CC3)CC1)=N2 [Compound No. 9]"
  quantityKind: "Ki"
  reported: "> 50 nM"
- compound: "CCCc1ccc2c(c1)Oc1cc(Cl)ccc1N=C2N1CCN(CC(C)(C)C(=O)O)CC1 [Compound No. 5]"
  quantityKind: "Ki"
  reported: "25 to 50 nM"
- compound: "CC(C)(CN1CCN(C2=Nc3ccccc3Cc3cc(F)ccc32)CC1)C(=O)O [Compound No. 37]"
  quantityKind: "Ki"
  reported: "> 50 nM"

* * *

- testedOn: 5-HT2A (Homo sapiens (Human))
- Sequence (P28223 whole entry, species assumed): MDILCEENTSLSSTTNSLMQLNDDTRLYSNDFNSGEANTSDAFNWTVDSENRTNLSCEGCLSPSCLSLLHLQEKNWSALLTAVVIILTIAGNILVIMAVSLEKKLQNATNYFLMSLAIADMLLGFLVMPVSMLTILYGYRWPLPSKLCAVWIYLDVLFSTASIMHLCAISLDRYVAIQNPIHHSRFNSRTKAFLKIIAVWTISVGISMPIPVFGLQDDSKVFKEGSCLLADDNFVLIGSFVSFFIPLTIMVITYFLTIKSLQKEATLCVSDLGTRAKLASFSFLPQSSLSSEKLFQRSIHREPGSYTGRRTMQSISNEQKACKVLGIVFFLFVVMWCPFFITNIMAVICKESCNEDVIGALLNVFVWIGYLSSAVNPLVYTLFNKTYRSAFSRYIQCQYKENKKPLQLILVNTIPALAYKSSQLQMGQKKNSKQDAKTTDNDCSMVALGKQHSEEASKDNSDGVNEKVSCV
- testDetails: 5-HT2A binding assay ([3H]-Ketanserin, HEK293 stable cell line membranes)
- conditionNotes: Table F, class symbols
pKi: −log10 of the molar value.

- molecularString: "CCCc1ccc2c(c1)Oc1cc(Cl)ccc1N=C2N1CCN(CC(C)(C)C(=O)O)CC1"
  pKi: "7.60 to 9.00"
- molecularString: "CC(C)(CN1CCN(C2=Nc3ccccc3Cc3cc(F)ccc32)CC1)C(=O)O"
  pKi: "< 7.30"
- molecularString: "CSc1ccc2c(c1)Oc1cc(Cl)ccc1N=C2N1CCN(CC(C)(C)C(=O)O)CC1"
  pKi: "7.60 to 9.00"
- molecularString: "COc1ccc2c(c1)Oc1cc(Cl)ccc1N=C2N1CCN(CC(C)(C)C(=O)O)CC1"
  pKi: "7.30 to 7.60"
- molecularString: "O=C(O)C1(CN2CCN(C3=Nc4ccccc4Cc4ccccc43)CC2)CC1"
  pKi: "< 7.30"
- molecularString: "Cc1ccc2c(c1)Oc1cc(C(F)F)ccc1N=C2N1CCN(CC(C)(C)C(=O)O)CC1"
  pKi: "< 7.30"
- molecularString: "Cc1ccc2c(c1)Oc1cc(F)ccc1C(N1CCN(CC(C)(C)C(=O)O)CC1)=N2"
  pKi: "7.60 to 9.00"
- molecularString: "CCc1ccc2c(c1)Oc1cc(C)ccc1N=C2N1CCN(CC2(C(=O)O)CC2)CC1"
  pKi: "7.60 to 9.00"

* * *

- testedOn: H1 (Homo sapiens (Human), UniProt P35367)
- Sequence (P35367 whole entry): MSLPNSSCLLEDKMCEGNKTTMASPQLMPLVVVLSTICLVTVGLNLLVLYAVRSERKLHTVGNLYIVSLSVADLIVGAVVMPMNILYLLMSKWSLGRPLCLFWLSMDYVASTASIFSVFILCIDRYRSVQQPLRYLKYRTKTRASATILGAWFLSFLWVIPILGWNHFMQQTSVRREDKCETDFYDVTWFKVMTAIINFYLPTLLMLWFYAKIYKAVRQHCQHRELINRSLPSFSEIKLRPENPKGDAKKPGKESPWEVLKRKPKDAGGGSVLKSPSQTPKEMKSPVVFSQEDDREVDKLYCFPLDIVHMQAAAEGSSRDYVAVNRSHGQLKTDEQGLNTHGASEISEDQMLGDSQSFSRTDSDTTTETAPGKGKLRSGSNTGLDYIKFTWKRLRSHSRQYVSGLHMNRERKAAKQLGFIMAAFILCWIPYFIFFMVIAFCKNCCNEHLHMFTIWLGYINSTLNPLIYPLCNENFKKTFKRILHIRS
- testDetails: H1 binding assay ([3H]pyrilamine, HEK293 stable cell line membranes)
- conditionNotes: Table E, class symbols
pKi: −log10 of the molar value.

- compound: "CC(C)(CN1CCN(C2=Nc3ccccc3Oc3cccc(F)c32)CC1)C(=O)O [Compound No. 39]"
  pKi: "< 7.30"
- compound: "O=C(O)C1(CN2CCN(C3=Nc4ccccc4Cc4ccccc43)CC2)CC1 [Compound No. 12]"
  pKi: "7.60 to 9.00"
- compound: "COc1ccc2c(c1)Oc1cc(Cl)ccc1N=C2N1CCN(CC(C)(C)C(=O)O)CC1 [Compound No. 20]"
  pKi: "< 7.30"
- compound: "Cc1ccc2c(c1)Oc1cc(Cl)ccc1N=C2N1CCN(CC(C)(C)C(=O)O)CC1 [Compound No. 1]"
  pKi: "7.60 to 9.00"
- compound: "Cc1ccc2c(c1)Oc1cc(F)ccc1C(N1CCN(CC3(C(=O)O)CC3)CC1)=N2 [Compound No. 19]"
  pKi: "7.30 to 7.60"
- compound: "Cc1ccc2c(c1)Oc1cc(F)ccc1N=C2N1CCN(CC2(C(=O)O)CC2)CC1 [Compound No. 18]"
  pKi: "7.60 to 9.00"
- compound: "Cc1ccc2c(c1)Oc1cc(C(F)F)ccc1N=C2N1CCN(CC(C)(C)C(=O)O)CC1 [Compound No. 16]"
  pKi: "< 7.30"
- compound: "Cc1ccc2c(c1)Oc1cc(C)ccc1C(N1CCN(CC(C)(C)C(=O)O)CC1)=N2 [Compound No. 7]"
  pKi: "< 7.30"
